Target: PPAR-γ (Homo sapiens)
Construct: expressed in transfected cells; host or cells: HeLa cells
Sequence (P37231 1-505): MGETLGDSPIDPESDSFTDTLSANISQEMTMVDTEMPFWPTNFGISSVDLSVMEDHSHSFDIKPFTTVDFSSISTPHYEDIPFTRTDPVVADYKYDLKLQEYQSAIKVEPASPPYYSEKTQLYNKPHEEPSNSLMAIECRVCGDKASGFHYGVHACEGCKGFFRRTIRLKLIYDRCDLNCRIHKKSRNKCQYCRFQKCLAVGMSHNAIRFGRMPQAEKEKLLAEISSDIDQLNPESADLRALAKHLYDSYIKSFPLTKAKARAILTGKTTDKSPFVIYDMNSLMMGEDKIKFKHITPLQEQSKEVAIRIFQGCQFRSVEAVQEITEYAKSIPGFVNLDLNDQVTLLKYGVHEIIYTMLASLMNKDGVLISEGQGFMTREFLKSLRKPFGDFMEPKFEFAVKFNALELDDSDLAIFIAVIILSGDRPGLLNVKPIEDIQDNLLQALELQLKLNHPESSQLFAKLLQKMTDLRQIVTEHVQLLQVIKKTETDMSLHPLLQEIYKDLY
Experiment: PPAR-type receptor transactivation test (luciferase reporter), PPAR-γ
Format: cell-based
Details: HeLa, 24 h; read-out: % activation γ
The following compounds are shown together with reported Emax values.
Form entry: value (%) — number only.

| Compound | Emax, % |
| --- | --- |
| CC1(C)CCOc2ccc(C(=O)c3ccc4cc(C(=O)O)ccc4c3)cc21 | 36 |
| CC1(C)CCc2cc(C(=O)c3ccc4cc(C(=O)O)ccc4c3)ccc2O1 | 190 |
| O=C(O)c1ccc2cc(C(=O)c3ccc4c(c3)CCCC4)ccc2c1 | 174 |
| COc1cc(C(=O)c2ccc3cc(C(=O)O)ccc3c2)ccc1C12CC3CC(CC(C3)C1)C2 | 3 |
| CCCCOC(c1ccc2c(c1)C(C)(C)CCC2(C)C)c1ccc2cc(C(=O)O)ccc2c1 (centres unmarked) | 7 |

// Emax lookup, key: CC(C)(C)c1ccc(C(=O)c2ccc3cc(C(=O)O)ccc3c2)cc1 148

// Emax lookup, key: COc1ccc(C(O)c2ccc(C(=O)O)cc2)cc1C12CC3CC(CC(C3)C1)C2 (centres unmarked) 7

// Emax lookup, key: COc1ccc(C(=O)c2ccc(C(=O)O)cc2)cc1C12CC3CC(CC(C3)C1)C2 0

* * *

The following compounds are shown together with reported Emax values.
Molecular target: PPAR-β (Homo sapiens, UniProt Q03181)
Construct: expressed in transfected cells; host or cells: HeLa cells
Sequence (Q03181 1-441): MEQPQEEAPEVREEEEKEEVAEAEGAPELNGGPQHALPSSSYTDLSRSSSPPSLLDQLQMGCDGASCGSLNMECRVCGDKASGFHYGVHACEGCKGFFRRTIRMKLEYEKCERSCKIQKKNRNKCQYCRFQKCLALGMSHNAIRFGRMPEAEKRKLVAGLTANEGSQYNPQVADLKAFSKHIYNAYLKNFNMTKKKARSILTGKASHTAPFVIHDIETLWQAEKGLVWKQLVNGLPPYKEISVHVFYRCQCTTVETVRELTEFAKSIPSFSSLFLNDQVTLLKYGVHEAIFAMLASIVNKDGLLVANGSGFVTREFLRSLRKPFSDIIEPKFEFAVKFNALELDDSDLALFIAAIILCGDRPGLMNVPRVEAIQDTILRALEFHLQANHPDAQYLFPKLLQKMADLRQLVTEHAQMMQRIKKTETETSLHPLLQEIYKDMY
Assay: PPAR-type receptor transactivation test (luciferase reporter), PPAR-β
Type: cell-based
Conditions: HeLa, 24 h; read-out: % activation β
Form entry: value (%) — number only.

| Compound | Observed property | Unit name | Reported measurement |
| --- | --- | --- | --- |
| COc1cc(C(=O)c2ccc3cc(C(=O)O)ccc3c2)ccc1C12CC3CC(CC(C3)C1)C2 [compound 5] | Emax | % | 8 |
| CCCCOC(c1ccc2c(c1)C(C)(C)CCC2(C)C)c1ccc2cc(C(=O)O)ccc2c1 (stereo not shown) [Comparative Example 1] | Emax | % | 28 |

// Emax lookup, key: O=C(O)c1ccc2cc(C(=O)c3ccc4c(c3)CCCC4)ccc2c1 [Compound 4] 291

// Emax lookup, key: COc1ccc(C(O)c2ccc(C(=O)O)cc2)cc1C12CC3CC(CC(C3)C1)C2 (stereo not shown) [Comparative Example 6] 16

Hello, the source for this data is patent US20020049250A1, in case you need it.
